B1: Cyanovirin-N, P81180 (parent)
chain: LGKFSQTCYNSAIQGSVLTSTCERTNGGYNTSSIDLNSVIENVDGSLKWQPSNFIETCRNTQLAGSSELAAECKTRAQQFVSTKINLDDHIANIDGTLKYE

# Variants of: B1
# CONDITION_DESCRIPTION: Nostoc ellipsosporum; pH 6; 25 °C; GdnHCl; CD; sodium phosphate 20 mM; transition: 2; reversible: yes(90%); structure 1IIY; whole UniProt chain shown
Recorded denaturant midpoint (higher = more stable) values for a group of variants are listed next.
Give a bare numeral; the unit M is implied.

Before answering, review these 5 worked examples.
P51G S11A S20A T61I; 3.3
P51G S11I S20A; 3.1
P51G S11V S20A T61V; 2.9
P51G S11A S20A; 2.5
P51G; 2.2

Consider the additional variant presented here.
Would you mind telling me what denaturant midpoint (higher = more stable) value was observed for P51G S11V S20A ?
2.8
